assay_details: MTD assay and toxicokinetics of Compound A, single 30 min intravenous infusion
test_context: both, monkey (machins), in vivo, iv
reported_metric: MTD at 14 days

### Prompt Give the measured MTD at 14 days of O=[N+]([O-])c1ccc(C(OP(=O)(N2CC2)N2CC2)C(F)(F)F)cc1Oc1ccc(-c2ccc(F)cc2)c(F)c1 (racemic) [Compound A] .
### Response > 6 mg/kg

----------
assay_details: in vitro
test_context: Sprague-Dawley (SD), rat, hepatocyte cytosol, half-life, with NADPH and AST-3021
Experimental: (1) Compound A for test, progesterone positive control, and 100 mM stock solutions of AST-3021 inhibitor were prepared and stored in the freezer (−10° C. to −30° C.). 1) Negative control group: at different time points (0 and 60 min), 30 μL/well of hepatocyte cytosol suspension containing 7.5 μM of sample for test was distributed in a 96-well plate. Three replicate wells were prepared in parallel. […]
reported_metric: half-life at 5 µM (h)
Please reply with the bare figure in h and do not write the unit itself.

### Prompt # half-life at 5 µM lookup, item O=[N+]([O-])c1ccc(C(OP(=O)(N2CC2)N2CC2)C(F)(F)F)cc1Oc1ccc(-c2ccc(F)cc2)c(F)c1 (racemic) [Compound A]
### Response 1.69

----------
assay_details: Blood-brain barrier assay of Compound A (plasma and brain concentration, PK)
Type: in vivo, CD-1 mice
test_context: CD-1, mouse, brain/plasma, iv, 1 mg/kg, IV 1 mg/kg; 8 h; individual animals; read-out: Ratio (Brain/Plasma)
reported_metric: Kp at 8 h
Write the value as a bare number.

### Prompt # input molecule: O=[N+]([O-])c1ccc(C(OP(=O)(N2CC2)N2CC2)C(F)(F)F)cc1Oc1ccc(-c2ccc(F)cc2)c(F)c1 (racemic) ; wanted: its Kp at 8 h
### Response 0.48

----------
Tested on: NCIH1755
assay_details: AKR1C3-dependent cytotoxicity, NSCLC cell line NCIH1755
Assay type: cell-based
test_context: Homo sapiens, NCI-H1755
reported_metric: pIC50
Lab note: report pIC50 as minus log10 of the concentration in molar units, number only.

### Prompt Query: pIC50; subject: C[C@@H](OP(=O)(N1CC1)N1CC1)c1ccc([N+](=O)[O-])c(Oc2cccc(C(=O)N(C)C)c2)c1
### Response 8.09

### Prompt # repeat for O=[N+]([O-])c1ccc(C(OP(=O)(N2CC2)N2CC2)C(F)(F)F)cc1Oc1ccc(-c2ccc(F)cc2)c(F)c1 (racemic)
### Response 6.24

----------
assay_details: Blood-brain barrier assay of Compound A (plasma and brain concentration, PK)
Assay type: in vivo, CD-1 mice
test_context: CD-1, mouse, brain, iv, 1 mg/kg, IV 1 mg/kg; 0.083 h; individual animals; read-out: Brain concentration
reported_metric: concentration at 0.083 h

### Prompt What does the data say about its concentration at 0.083 h? Entry: O=[N+]([O-])c1ccc(C(OP(=O)(N2CC2)N2CC2)C(F)(F)F)cc1Oc1ccc(-c2ccc(F)cc2)c(F)c1 (racemic)
### Response 538 ng/g

----------
assay_details: Blood-brain barrier assay of Compound A (plasma and brain concentration, PK)
Format: in vivo, CD-1 mice
test_context: CD-1, mouse, brain/plasma, iv, 1 mg/kg, IV 1 mg/kg; 4 h; individual animals; read-out: Ratio (Brain/Plasma)
reported_metric: Kp at 4 h
The answer should be written as a number, with no unit following it.

### Prompt # input compound: O=[N+]([O-])c1ccc(C(OP(=O)(N2CC2)N2CC2)C(F)(F)F)cc1Oc1ccc(-c2ccc(F)cc2)c(F)c1 (racemic) ; wanted: its Kp at 4 h
### Response 0.74

----------
assay_details: Blood-brain barrier assay of Compound A (plasma and brain concentration, PK)
Format: in vivo, CD-1 mice
test_context: CD-1, mouse, plasma, iv, 1 mg/kg, IV 1 mg/kg; 0.25 h; individual animals; read-out: Plasma concentration
reported_metric: concentration at 0.25 h (µg/mL)
Write the answer as a number in µg/mL, unit excluded.

### Prompt concentration at 0.25 h for O=[N+]([O-])c1ccc(C(OP(=O)(N2CC2)N2CC2)C(F)(F)F)cc1Oc1ccc(-c2ccc(F)cc2)c(F)c1 (racemic) [Compound A] ?
### Response 0.372

----------
assay_details: Blood-brain barrier assay of Compound A (plasma and brain concentration, PK)
Assay type: in vivo, CD-1 mice
test_context: CD-1, mouse, brain/plasma, iv, 1 mg/kg, IV 1 mg/kg; 0.083 h; mean of 3 animals; read-out: Ratio (Brain/Plasma), Mean
reported_metric: Kp at 0.083 h
Number, no unit, nothing else.

### Prompt # query: Kp at 0.083 h of entry O=[N+]([O-])c1ccc(C(OP(=O)(N2CC2)N2CC2)C(F)(F)F)cc1Oc1ccc(-c2ccc(F)cc2)c(F)c1 (racemic)
### Response 1.28

----------
assay_details: Blood-brain barrier assay of Compound A (plasma and brain concentration, PK)
Assay type: in vivo, CD-1 mice
test_context: CD-1, mouse, brain/plasma, iv, 1 mg/kg, IV 1 mg/kg; 1 h; individual animals; read-out: Ratio (Brain/Plasma)
reported_metric: Kp at 1 h
Form: value (number only, do not type unit).

### Prompt Look up Kp at 1 h: O=[N+]([O-])c1ccc(C(OP(=O)(N2CC2)N2CC2)C(F)(F)F)cc1Oc1ccc(-c2ccc(F)cc2)c(F)c1 (racemic)
### Response 0.8

----------
assay_details: in vitro
test_context: CD-1, mouse, hepatocyte cytosol, with AST-3021 (AKR1C3 inhibitor), 3 μM, Metabolic parameter t1/2, mouse; 2 mM NADPH + 3 μM AST-3021 (inhibition reaction group); 5 μM
reported_metric: half-life at 5 µM (h)
Provide only the numeric value, understood in h.

### Prompt So what does the record say about half-life at 5 µM for O=[N+]([O-])c1ccc(C(OP(=O)(N2CC2)N2CC2)C(F)(F)F)cc1Oc1ccc(-c2ccc(F)cc2)c(F)c1 (racemic) ?
### Response 2.81

----------
assay_details: in vitro
test_context: human, hepatocyte cytosol, Metabolic parameter t1/2, human; 2 mM NADPH, no AST-3021 (normal reaction / positive control group); 5 μM
reported_metric: half-life at 5 µM (min)
Give your result in min as a bare value.

### Prompt Give the measured half-life at 5 µM of O=[N+]([O-])c1ccc(C(OP(=O)(N2CC2)N2CC2)C(F)(F)F)cc1Oc1ccc(-c2ccc(F)cc2)c(F)c1 (racemic) .
### Response 49.9

----------
assay_details: in vitro
test_context: cynomolgus (printed as 'machins'), monkey, hepatocyte cytosol, Metabolic parameter t1/2, monkey; negative control group (no NADPH, no AST-3021); 5 μM
reported_metric: half-life at 5 µM (min)
Entry rule: numbers only, all in min.

### Prompt Please report the recorded half-life at 5 µM for O=[N+]([O-])c1ccc(C(OP(=O)(N2CC2)N2CC2)C(F)(F)F)cc1Oc1ccc(-c2ccc(F)cc2)c(F)c1 (racemic) [Compound A] .
### Response 172
